Items are presented alongside their recorded IC50.
Molecular target: Aminopeptidase N (Plasmodium falciparum FcB1/Columbia, UniProt O96935)
Sequence (O96935 whole entry): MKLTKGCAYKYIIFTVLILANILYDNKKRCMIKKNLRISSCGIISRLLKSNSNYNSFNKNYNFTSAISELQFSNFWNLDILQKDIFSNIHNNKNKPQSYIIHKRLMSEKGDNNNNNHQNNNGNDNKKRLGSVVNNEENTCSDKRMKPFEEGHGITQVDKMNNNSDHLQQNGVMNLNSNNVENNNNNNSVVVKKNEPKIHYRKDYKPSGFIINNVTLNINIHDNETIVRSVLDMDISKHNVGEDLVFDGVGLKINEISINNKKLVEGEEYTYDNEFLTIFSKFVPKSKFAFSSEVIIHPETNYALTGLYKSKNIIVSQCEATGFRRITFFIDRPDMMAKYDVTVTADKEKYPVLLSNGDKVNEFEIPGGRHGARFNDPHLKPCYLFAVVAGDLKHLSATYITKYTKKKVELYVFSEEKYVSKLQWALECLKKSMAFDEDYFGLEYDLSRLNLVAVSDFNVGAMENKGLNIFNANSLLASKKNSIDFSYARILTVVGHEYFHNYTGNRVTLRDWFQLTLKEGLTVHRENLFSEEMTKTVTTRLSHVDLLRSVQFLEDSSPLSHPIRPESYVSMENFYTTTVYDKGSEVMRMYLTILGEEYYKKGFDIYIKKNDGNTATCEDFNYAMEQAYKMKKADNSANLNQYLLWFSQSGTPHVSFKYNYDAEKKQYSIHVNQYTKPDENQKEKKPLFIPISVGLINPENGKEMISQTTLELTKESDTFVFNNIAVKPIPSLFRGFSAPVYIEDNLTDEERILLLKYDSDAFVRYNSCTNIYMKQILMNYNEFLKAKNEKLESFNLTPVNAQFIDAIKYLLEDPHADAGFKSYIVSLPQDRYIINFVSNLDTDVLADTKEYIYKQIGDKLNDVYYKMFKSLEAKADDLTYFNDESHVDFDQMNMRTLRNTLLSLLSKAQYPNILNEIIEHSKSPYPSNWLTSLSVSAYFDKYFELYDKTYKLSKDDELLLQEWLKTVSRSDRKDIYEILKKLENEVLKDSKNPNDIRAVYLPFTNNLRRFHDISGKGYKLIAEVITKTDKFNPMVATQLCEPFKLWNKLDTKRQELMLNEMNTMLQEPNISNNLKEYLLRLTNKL
Experiment: malaria alanyl aminopeptidase activity blockers – biochemical, fluorogenic H-Leu-NHMec substrate, 1536-well (AID 1445)
Parameters: species or system Plasmodium falciparum 3D7, 3D7
Calls of active or inactive are those of the source.

Solved cases below.
• Cc1ccccc1N(CC(=O)NC1CCCC1)C(=O)C[S+]([O-])CC(=O)Nc1ccc2c(c1)OCO2 (stereo not given) = 63.9 µM (active)
• O=C(NNS(=O)(=O)c1ccc(Cl)cc1)c1cc(-c2ccccc2)nc2ccccc12 = 36.5 µM (active)
• O=S(=O)(Nc1nc2cc3c(cc2nc1Cl)OCCO3)c1ccccc1 = 66.8 µM (active)
• CC(C)(C)c1nc2ccccc2c(=O)n1N1C(=O)c2ccccc2C1=O = 16.1 µM (active)

Here's the next entry for you.
-- ask Any idea what IC50 was measured for C=CCOc1ccc(/C=C2\SC(=S)N(C(C(=O)O)c3ccccc3)C2=O)cc1 (stereo not given) ?
-- reply 33.8 µM (active)

----------
Target: Type-1 angiotensin II receptor (Homo sapiens, UniProt P30556)
Sequence (P30556 whole entry): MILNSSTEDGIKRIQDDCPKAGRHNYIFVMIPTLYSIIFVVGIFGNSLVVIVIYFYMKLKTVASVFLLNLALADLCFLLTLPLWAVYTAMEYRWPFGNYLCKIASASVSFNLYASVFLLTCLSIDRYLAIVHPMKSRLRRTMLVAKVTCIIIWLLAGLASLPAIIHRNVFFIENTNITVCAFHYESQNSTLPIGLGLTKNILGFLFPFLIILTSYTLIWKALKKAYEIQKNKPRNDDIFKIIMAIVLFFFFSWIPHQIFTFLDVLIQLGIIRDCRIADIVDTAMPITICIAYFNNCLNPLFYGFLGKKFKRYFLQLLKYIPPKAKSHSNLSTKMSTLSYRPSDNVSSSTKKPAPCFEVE
Assay: antagonism of angiotensin II type 1 receptor – cell-based, uHTS hits, selectivity assay for APJ receptor antagonist project, dose response (AID 463214);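 also: antagonist potency against angiotensin II stimulated AT1 response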
Format: functional
The source made the active and inactive calls.
property_measured: IC50

Solved cases below.
• CN(C)CCN(Cc1ccco1)C(=O)c1cc2c(Cl)nc3ccccc3c2s1 = 33.8 µM (not active)
• Oc1c(/C=N/c2cccc3cccnc23)sc2ccccc12 = 2.78 µM (active)
• CNC(=O)c1nnsc1S(=O)(=O)c1ccc(Cl)cc1 = 9.67 µM (active)

-- ask Any idea what IC50 was measured for `O=C(NNc1ccc(-c2csnn2)cc1)c1cc(Cl)cc(Cl)c1` ?
-- reply 2.43 µM (active)

-- ask Ok, now `COc1ccc2c(c1)C(=O)[C@H](O)[C@@H](c1ccc(OC)c(Br)c1)O2`
-- reply 12.1 µM (active)

-- ask Ok, now `COc1ccc(CC(=O)OCC(=O)c2ccc(S(=O)(=O)N3CCCCC3)cc2)cc1`
-- reply 20 µM (not active)
